// data source = PubChem BioAssay AID1259407

# Tested on: CCRIS mutagenicity, Ames/micronucleus/aberration tests
# test.summary: CCRIS mutagenicity studies
# condition.info: Test System: AMES SALMONELLA TYPHIMURIUM; Strain/Indicator: TA98; Metabolic Activation: HAMSTER, LIVER, S-9, AROCLOR 1254 (10%); Method: STANDARD PLATE
Activity calls are given as the source filed them. No rule for the calls is given here.
Respond with a class label; see active, inactive

Sample answers from the record:
| compound | group.label |
| --- | --- |
| O=S(=O)(c1ccc(O)cc1)c1ccc(O)cc1 | inactive |
| CCC1CCC(CCC(=O)[O-])C1.CCC1CCC(CCC(=O)[O-])C1.[Co+2] (centres undefined) | inactive |
| CN(C)c1ccc(/C=C/c2ccc([N+](=O)[O-])cc2)cc1 | active |

In the following, a different compound is considered.
q: So what was the verdict on ClC/C=C/CCl in this test?
a: active
